For each record, write down the corresponding melting point.

[ask] GET /values?readout=melting point&item= CC1CCN(CC2CCN(S(=O)(=O)c3ccc(-c4ccccc4F)cc3)CC2)CC1
[reply] 136 to 139 °C

[ask] GET /values?readout=melting point&item= C#CCC1CCN(C2CCN(S(=O)(=O)c3ccc(Br)cc3)CC2)CC1
[reply] 161 to 164 °C

[ask] GET /values?readout=melting point&item= CC1CCN(C2CCN(S(=O)(=O)c3ccc([N+](=O)[O-])cc3)CC2)CC1
[reply] 165 to 168 °C

[ask] GET /values?readout=melting point&item= COc1cccc(S(=O)(=O)N2CCC(N3CCC(C)CC3)CC2)c1
[reply] 81 to 83 °C

[ask] GET /values?readout=melting point&item= Cc1ccc(C#N)c(S(=O)(=O)N2CCC(N3CCC(C)CC3)CC2)c1
[reply] 118 to 121 °C

[ask] GET /values?readout=melting point&item= CC1CCN(C2CCN(S(=O)(=O)c3ccc(C(F)(F)F)cc3)CC2)CC1
[reply] 175 to 178 °C
